Assay: Metabolism rate, pmol/min/mg at 1 μM, human
Type: in vitro ADME
Conditions: 1 μM compound
READOUT KIND: Human pmol/min/mg 1 μM
Could you write the number and then its unit?

Known Human pmol/min/mg 1 μM results, listed for orientation:
MOLECULE	RESULT
Cc1cc2c(cc1Cc1ccc(C(=O)NCc3nc4ccccc4[nH]3)o1)C(C)(C)CCC2(C)C [Compound 48]	289 pmol/min/mg
Cc1cc2c(cc1Cc1ccc(C(=O)NCc3ccccc3F)o1)C(C)(C)CCC2(C)C [Compound 46]	485 pmol/min/mg
Cc1cc2c(cc1Cc1ccc(C(=O)Nc3ccc4[nH]ncc4c3)o1)C(C)(C)CCC2(C)C [Compound 109]	130 pmol/min/mg

For the molecule shown here, COc1cc(OC)c(NC(=O)c2ccc(Cc3cc(C(C)(C)C)ccc3C)o2)c(OC)c1 [Compound 200] , give the reported Human pmol/min/mg 1 μM.
346 pmol/min/mg

For the molecule shown here, Cc1cc2c(cc1Cc1ccc(C(=O)NCCOc3ccccc3)o1)C(C)(C)CCC2(C)C [Compound 47] , give the reported Human pmol/min/mg 1 μM.
392 pmol/min/mg

For the molecule shown here, Cc1cc2c(cc1Cc1ccc(C(=O)NC[C@H]3CC[C@@H](CNC(=N)N)CC3)o1)C(C)(C)CCC2(C)C [Compound 23] , give the reported Human pmol/min/mg 1 μM.
263 pmol/min/mg

For the molecule shown here, COc1cc(OC)c(NC(=O)c2ccc(Cc3cc4c(cc3OC)C(C)(C)CCC4(C)C)o2)c(OC)c1 [Compound 169] , give the reported Human pmol/min/mg 1 μM.
589 pmol/min/mg

For the molecule shown here, Cc1cc2c(cc1Cc1ccc(C(=O)NCc3cccc(CNc4nccc(NCC5CCCO5)n4)c3)o1)C(C)(C)CCC2(C)C (stereo not drawn) [Compound 70] , give the reported Human pmol/min/mg 1 μM.
311 pmol/min/mg

For the molecule shown here, COc1cc(OC)c(NC(=O)c2ccc(Cc3cc(C)cc4c3OCCC4(C)C)o2)c(OC)c1 [Compound 190.5] , give the reported Human pmol/min/mg 1 μM.
1124 pmol/min/mg

For the molecule shown here, COc1cc(NS(C)(=O)=O)c(NC(=O)c2ccc(Cc3cc4c(cc3C)C(C)(C)CCC4(C)C)o2)c(OC)c1 [Compound 228] , give the reported Human pmol/min/mg 1 μM.
641 pmol/min/mg

For the molecule shown here, COc1cccc(OC)c1NC(=O)c1ccc(Cc2cc(C(C)(C)C)ccc2C)o1 [Compound 206] , give the reported Human pmol/min/mg 1 μM.
689 pmol/min/mg

For the molecule shown here, Cc1cc2c(cc1Cc1ccc(C(=O)NCC3CCC(CNc4nccc(NCC5CCCO5)n4)CC3)o1)C(C)(C)CCC2(C)C (stereo not drawn) [Compound 92] , give the reported Human pmol/min/mg 1 μM.
241 pmol/min/mg

For the molecule shown here, COc1cc2c(cc1Cc1ccc(C(=O)NCc3cccc(CNc4ccnc(NC[C@H]5CCCO5)n4)c3)o1)C(C)(C)CCC2(C)C (stereo in doubt) [Compound 199] , give the reported Human pmol/min/mg 1 μM.
181 pmol/min/mg

For the molecule shown here, Cc1cc2c(cc1Cc1ccc(C(=O)NCc3ccc(CNc4ncccn4)cc3)o1)C(C)(C)CCC2(C)C [Compound 137] , give the reported Human pmol/min/mg 1 μM.
594 pmol/min/mg

For the molecule shown here, Cc1cc2c(cc1Cc1ccc(C(=O)NC[C@H]3CC[C@H](C(N)=O)CC3)o1)C(C)(C)CCC2(C)C [Compound 156] , give the reported Human pmol/min/mg 1 μM.
867 pmol/min/mg

For the molecule shown here, Cc1cc2c(cc1Cc1ccc(C(=O)NCc3cccc4ccccc34)o1)C(C)(C)CCC2(C)C [Compound 95] , give the reported Human pmol/min/mg 1 μM.
283 pmol/min/mg

For the molecule shown here, COc1cccc(OC)c1NC(=O)c1ccc(Cc2c(C)c(C)c(Br)c(C)c2C)o1 [Compound 226] , give the reported Human pmol/min/mg 1 μM.
369 pmol/min/mg

For the molecule shown here, Cc1cc2c(cc1Cc1ccc(C(=O)NCc3cccs3)o1)C(C)(C)CCC2(C)C [Compound 44] , give the reported Human pmol/min/mg 1 μM.
459 pmol/min/mg

For the molecule shown here, COc1cc(OC)c(NC(=O)c2ccc(Cc3cc4c(cc3C)CCCC4(C)C)o2)c(OC)c1 [Compound 183] , give the reported Human pmol/min/mg 1 μM.
238 pmol/min/mg

For the molecule shown here, COc1cc(OC)c(NC(=O)c2ccc(Cc3c(C)cc(C)cc3C)o2)c(OC)c1 [Compound 168] , give the reported Human pmol/min/mg 1 μM.
407 pmol/min/mg

For the molecule shown here, COc1cc(CO)cc(OC)c1NC(=O)c1ccc(Cc2cc3c(cc2C)C(C)(C)CCC3(C)C)o1 [Compound 159] , give the reported Human pmol/min/mg 1 μM.
793 pmol/min/mg

For the molecule shown here, COc1cccc(OC)c1NC(=O)c1ccc(Cc2c(C)c(C)cc(C)c2C)o1 [Compound 225] , give the reported Human pmol/min/mg 1 μM.
450 pmol/min/mg

For the molecule shown here, Cc1cc2c(cc1Cc1ccc(C(=O)NCc3ccccc3Cl)o1)C(C)(C)CCC2(C)C [Compound 51] , give the reported Human pmol/min/mg 1 μM.
392 pmol/min/mg

For the molecule shown here, COCCNc1nccc(NCc2cccc(CNC(=O)c3ccc(Cc4cc5c(cc4C)C(C)(C)CCC5(C)C)o3)c2)n1 [Compound 154] , give the reported Human pmol/min/mg 1 μM.
241 pmol/min/mg

---

Target: human GnRH receptor (Homo sapiens, UniProt P30968)
Construct: expressed in transfected cells; host or cells: HEK 293 (hGnRH-R/293, from Dr. Stuart Sealfon)
Sequence (P30968 whole entry): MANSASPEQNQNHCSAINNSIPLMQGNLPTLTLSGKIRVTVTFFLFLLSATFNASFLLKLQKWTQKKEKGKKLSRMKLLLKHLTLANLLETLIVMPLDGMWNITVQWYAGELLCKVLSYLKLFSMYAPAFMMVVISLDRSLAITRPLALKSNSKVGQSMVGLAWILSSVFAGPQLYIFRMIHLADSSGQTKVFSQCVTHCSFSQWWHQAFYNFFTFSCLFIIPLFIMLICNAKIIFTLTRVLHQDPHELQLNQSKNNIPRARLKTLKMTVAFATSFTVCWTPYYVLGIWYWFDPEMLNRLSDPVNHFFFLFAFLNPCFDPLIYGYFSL
Assay: Radioligand binding, 125I-GnRH-A displacement, membranes of HEK 293 cells with human GnRH receptor
Conditions: 1 uM; read-out: % Inhib. @ 1 uM hGnRH
Experimental: All compounds were diluted in 1% DMSO (final assay concentration) in binding assay buffer. […] Reactions were terminated by rapid filtration onto 96-well Packard GF/C filters soaked in 0.1% polyethyleneimine. Filters were washed three times with PBS buffer, dried and counted on a Packard Topcount by liquid scintillation counting. […] The reaction mixture was vortexed and incubated for 1 min at room temperature. […] Fractions were assessed for biological activity by radioligand binding. […]
READOUT KIND: inhibition at 1 µM (%)
Answer in %, number only, no unit symbol.

Known inhibition at 1 µM results, listed for orientation:
COMPOUND	RESULT UNITS	inhibition at 1 µM
Cc1cc2c(cc1Cc1ccc(C(=O)NCC(=O)Nc3ccc([N+](=O)[O-])cc3)o1)C(C)(C)CCC2(C)C [drawing 1022]	%	83
Cc1cc2c(cc1Cc1ccc(C(=O)N(C)CC(O)c3ccccc3)o1)C(C)(C)CCC2(C)C (centres unmarked)	%	20
Cc1ccc(CCNC(=O)c2ccc(Cc3cc4c(cc3C)C(C)(C)CCC4(C)C)o2)cc1 [drawing 1193]	%	48

# get_value(readout= inhibition at 1 µM, system= human GnRH receptor (Homo sapiens, UniProt P30968)) for Cc1cc2c(cc1Cc1ccc(C(=O)NCc3cccc(F)c3)o1)C(C)(C)CCC2(C)C [drawing 1195]
81

---

Target: mouse GnRH receptor (Mus musculus)
Construct: expressed in transfected cells; host or cells: 293 cells
Sequence (Q01776 whole entry): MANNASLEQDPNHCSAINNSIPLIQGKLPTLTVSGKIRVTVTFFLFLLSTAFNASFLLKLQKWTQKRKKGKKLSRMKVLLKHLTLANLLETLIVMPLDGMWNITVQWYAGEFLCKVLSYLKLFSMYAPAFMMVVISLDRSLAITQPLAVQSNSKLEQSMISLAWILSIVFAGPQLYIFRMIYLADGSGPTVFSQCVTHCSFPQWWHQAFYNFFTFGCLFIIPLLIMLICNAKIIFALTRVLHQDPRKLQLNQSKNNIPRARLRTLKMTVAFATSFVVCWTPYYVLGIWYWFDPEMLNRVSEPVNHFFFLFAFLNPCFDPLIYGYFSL
Assay: Radioligand binding, 125I-GnRH-A, 293 cells expressing mouse GnRH receptors
Conditions: 10 uM; read-out: % Inhib. @ 10 uM mGnRH
Label yes (1) when inhibition at 10 µM >= 70%; otherwise no (0).

COMPOUND	CLASS LABEL
Cc1cc2c(cc1Cc1ccc(C(=O)N3CCC(c4cccc(C(F)(F)F)c4)C(O)C3)o1)C(C)(C)CCC2(C)C (centres unmarked)	no (0)
Cc1cc2c(cc1Cc1ccc(C(=O)N(Cc3cccnc3)Cc3cccc4ccccc34)o1)C(C)(C)CCC2(C)C	yes (1)
Cc1ccc(C(C)NC(=O)c2ccc(Cc3cc4c(cc3C)C(C)(C)CCC4(C)C)o2)cc1 (centres unmarked)	yes (1)

Is inhibition at 10 µM for "CCCCN(CC)CCNC(=O)c1ccc(Cc2cc3c(cc2C)C(C)(C)CCC3(C)C)o1" at or above 70%?
yes (1)

Is inhibition at 10 µM for "Cc1cc2c(cc1Cc1ccc(C(=O)NC(C)(C)C(=O)OC(C)(C)C)o1)C(C)(C)CCC2(C)C" at or above 70%?
yes (1)

Is inhibition at 10 µM for CCOC(=O)CC1C(=O)NCCN1C(=O)c1ccc(Cc2cc3c(cc2C)C(C)(C)CCC3(C)C)o1 (centres unmarked) at or above 70%?
yes (1)

Is inhibition at 10 µM for Cc1cc2c(cc1Cc1ccc(C(=O)NCC(C)(C)CO)o1)C(C)(C)CCC2(C)C [drawing 1438] at or above 70%?
yes (1)

Is inhibition at 10 µM for Cc1cc2c(cc1Cc1ccc(C(=O)N(CCC#N)CC3CCCO3)o1)C(C)(C)CCC2(C)C (centres unmarked) at or above 70%?
yes (1)

Is inhibition at 10 µM for "Cc1cc2c(cc1Cc1ccc(C(=O)NC(CO)CO)o1)C(C)(C)CCC2(C)C" at or above 70%?
no (0)
